Just for reference, the supplement of paper PMC6555819 is where these values come from.

tested on: FXR:RXRa (NR concentration 270 nM, RXRa partner concentration 90 nM); test: PBM binding z-score (relative to random genomic background probes); higher = stronger binding; sequences stand for … in GC…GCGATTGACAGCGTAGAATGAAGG
Decide by PBM binding z-score: equal to or exceeding 0.7 means Yes, less means No.

{"columns": ["biopolymer-sequence", "assigned-category"],
 "data": [
  ["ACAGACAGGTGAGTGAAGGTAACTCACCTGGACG", "No"],
  ["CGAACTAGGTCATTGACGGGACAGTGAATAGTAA", "Yes"],
  ["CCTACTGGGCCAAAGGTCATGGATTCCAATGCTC", "Yes"],
  ["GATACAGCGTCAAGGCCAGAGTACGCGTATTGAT", "No"],
  ["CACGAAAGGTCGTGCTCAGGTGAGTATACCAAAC", "Yes"]
]}
